B1: FAM189A2 (parent)
chain: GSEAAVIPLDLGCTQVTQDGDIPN

- Variants of: B1
- measurement_notes: protein stability index of a GFP-peptide fusion (GPS, HEK-293T) (PSI 1-6); higher = more stable;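 further: lentivirally expressed fusions sorted by FACS into six bins by GFP to DsRed ratio, PSI derived from sequencing read proportions per bin multiplied by bin number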
- run_parameters: c terminus: a fixed tail appended
Known protein stability index of a selection of variants
Format: numeric value only, no unit, no commentary.

Examples from the recorded data:
> print(dat)
                               seq                parameter  meas.value
1  GSEAAVIPLDHGCTQVTQDGDIPN [L11H]  protein stability index        5.75
2  GSEAAVIPLDLNCTQVTQDGDIPN [G12N]  protein stability index        5.09
3  GSEAAVIPLDLGCTQVTQDGDIPS [N24S]  protein stability index        5.51
4  GSEAAVIPLDQGCTQVTQDGDIPN [L11Q]  protein stability index        5.33
5  GSEAAVIPLDLGCTQVTHDGDIPN [Q18H]  protein stability index        5.22

Identify measured protein stability index associated with GSEAAVEPLDLGCTQVTQDGDIPN [I7E]
5.78

Name the recorded protein stability index of the item GSEAAIIPLDLGCTQVTQDGDIPN [V6I] in your answer.
5.25

Kindly indicate its recorded protein stability index. Item: GSEAAVHPLDLGCTQVTQDGDIPN [I7H]
5.23

Give the reported protein stability index for this variant. GSEAAVSPLDLGCTQVTQDGDIPN [I7S]
5.58

Return value of protein stability index for input GSEAAVIPLDLGCTQVTQDGYIPN [D21Y] , no commentary.
4.46

Look up protein stability index of GSEAAVICLDLGCTQVTQDGDIPN [P8C] and report it.
4.03
